target: UniProtKB P30874
Sequence (P30874 whole entry): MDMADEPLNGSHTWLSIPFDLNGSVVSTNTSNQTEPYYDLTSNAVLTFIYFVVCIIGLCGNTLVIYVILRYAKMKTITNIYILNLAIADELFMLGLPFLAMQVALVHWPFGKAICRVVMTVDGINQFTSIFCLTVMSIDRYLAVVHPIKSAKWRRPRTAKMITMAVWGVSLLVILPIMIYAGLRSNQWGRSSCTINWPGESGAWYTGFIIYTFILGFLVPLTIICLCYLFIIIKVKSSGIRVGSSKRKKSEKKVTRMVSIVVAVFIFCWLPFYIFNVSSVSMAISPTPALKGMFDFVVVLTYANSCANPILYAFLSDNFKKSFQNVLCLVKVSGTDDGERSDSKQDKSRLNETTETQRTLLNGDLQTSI
pKi: −log10 of the molar value. Bridge positions count the residues as written; N and C are the ends. Square brackets hold non-standard residues; d marks the D form. Peptide text beside a SMILES is read from it. dPhe(4-F) = N[C@H](Cc1ccc(F)cc1)C(=O)O; 2Nal = N[C@@H](Cc1ccc2ccccc2c1)C(=O)O; 3Pal = N[C@@H](Cc1cccnc1)C(=O)O; Tle = CC(C)(C)[C@H](N)C(=O)O
measurement label: pKi

Consider the following illustrative entries.
compound | measurement label | reported result
CC(C)(C)[C@@H]1NC(=O)[C@H](CCCCN)NC(=O)[C@@H](Cc2c[nH]c3ccccc23)NC(=O)[C@H](Cc2cccnc2)NC(=O)[C@H](NC(=O)[C@H](N)Cc2ccc(F)cc2)CSSC[C@@H](C(=O)N[C@@H](Cc2ccc3ccccc3c2)C(N)=O)NC1=O (H-[dPhe(4-F)][dC][3Pal][dW]K[Tle]C[2Nal]-NH2; disulfide 2-7) | pKi | 6.88
C[C@@H](O)[C@@H]1NC(=O)[C@H](CCCCN)NC(=O)[C@@H](Cc2c[nH]c3ccccc23)NC(=O)[C@@H](Cc2ccccn2)NC(=O)C(NC(=O)[C@@H](N)Cc2ccc(Cl)cc2)CSSCC(C(=O)N[C@@H](Cc2ccc3ccccc3c2)C(N)=O)NC1=O (stereo in doubt) | pKi | 7.85
CC(C)(C)[C@@H]1NC(=O)[C@H](CCCCN)NC(=O)[C@@H](Cc2c[nH]c3ccccc23)NC(=O)[C@H](Cc2cccnc2)NC(=O)[C@H](NC(=O)[C@@H](N)Cc2c[nH]c3ccccc23)CSSC[C@@H](C(=O)N[C@@H](Cc2ccc3ccccc3c2)C(N)=O)NC1=O (H-W[dC][3Pal][dW]K[Tle]C[2Nal]-NH2; disulfide 2-7) | pKi | 7.08

[a] CC(C)(C)[C@@H]1NC(=O)[C@H](CCCCN)NC(=O)[C@@H](Cc2c[nH]c3ccccc23)NC(=O)[C@H](Cc2cccnc2)NC(=O)[C@H](NC(=O)[C@@H](N)Cc2ccc(Cl)cc2)CSSC[C@@H](C(=O)N[C@@H](Cc2ccc(Cl)cc2)C(N)=O)NC1=O
[b] CC(C)[C@@H]1NC(=O)[C@H](CCCCN)NC(=O)[C@@H](Cc2c[nH]c3ccccc23)NC(=O)[C@H](Cc2cccnc2)NC(=O)[C@H](NC(=O)[C@H](N)Cc2ccc(F)cc2)CSSC[C@@H](C(=O)N[C@H](Cc2ccc(F)cc2)C(N)=O)NC1=O
[c] CC(C)[C@@H]1NC(=O)[C@H](CCCCN)NC(=O)[C@@H](Cc2c[nH]c3ccccc23)NC(=O)[C@H](Cc2cccnc2)NC(=O)[C@H](NC(=O)[C@@H](N)Cc2ccc(F)cc2)CSSC[C@@H](C(=O)N[C@@H](Cc2ccc3ccccc3c2)C(N)=O)NC1=O
Task item: Let's sort these by pKi, smallest first. Go ahead? Answer by naming the labels in the order asked.
Reply: b, c, a
(b: 6.97, c: 7.46, a: 7.72)
